Biological target: Alpha amylase (Homo sapiens)
Sequence (P0DUB6 whole entry): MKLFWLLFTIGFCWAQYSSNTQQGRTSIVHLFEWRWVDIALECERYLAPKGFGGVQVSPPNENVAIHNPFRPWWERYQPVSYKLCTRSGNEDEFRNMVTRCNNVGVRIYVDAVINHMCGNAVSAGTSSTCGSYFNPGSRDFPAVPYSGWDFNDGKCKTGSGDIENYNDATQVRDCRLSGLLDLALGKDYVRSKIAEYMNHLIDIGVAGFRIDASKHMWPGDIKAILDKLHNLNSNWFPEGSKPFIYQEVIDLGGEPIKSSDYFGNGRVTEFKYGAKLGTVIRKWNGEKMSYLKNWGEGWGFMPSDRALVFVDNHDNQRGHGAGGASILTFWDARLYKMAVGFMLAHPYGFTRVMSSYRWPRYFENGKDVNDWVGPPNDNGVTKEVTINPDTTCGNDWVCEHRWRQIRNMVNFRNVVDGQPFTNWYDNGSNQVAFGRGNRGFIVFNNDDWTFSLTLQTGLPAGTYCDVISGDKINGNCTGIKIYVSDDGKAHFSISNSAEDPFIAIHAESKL
Assay: Inhibition of alpha-amylase (unknown origin) using starch as substrate preincubated with substrate for 15 mins followed by compound addition and measured after 15 mins by UV-VIS spectrophotometric analysis
So basically every entry gets a class from its IC50, ranges being low bracket = under 300 nM, middle bracket = from 300 nM up to 400 nM, high bracket = 400 nM and over

Take a look at these entries with their results.
Compound Structure String: COc1cc(/C=N/NC(=O)c2csc(Nc3ccc(Cl)cc3)n2)ccc1O
Assigned Label: middle bracket
//
Compound Structure String: O=C(N/N=C/c1ccc(O)cc1)c1csc(Nc2ccccc2)n1
Assigned Label: high bracket
//
Compound Structure String: COc1ccc(Nc2nc(C(=O)N/N=C/c3ccc(O)c(OC)c3)cs2)cc1
Assigned Label: high bracket
//
Compound Structure String: O=C(N/N=C/c1ccccc1)c1csc(Nc2ccc([N+](=O)[O-])cc2)n1
Assigned Label: middle bracket
//
Compound Structure String: COc1cc(/C=N/NC(=O)c2csc(Nc3ccc([N+](=O)[O-])cc3)n2)ccc1O
Assigned Label: low bracket
//
Compound Structure String: COc1ccc(/C=N/NC(=O)c2csc(Nc3ccc(OC)cc3)n2)cc1
Assigned Label: high bracket
//
Compound Structure String: O=C(N/N=C/c1cccc(F)c1)c1csc(Nc2ccccc2)n1
Assigned Label: high bracket
//
Compound Structure String: O=C(N/N=C/c1ccc(Cl)cc1)c1csc(Nc2ccc([N+](=O)[O-])cc2)n1
Assigned Label: low bracket
//
Compound Structure String: COc1ccc(Nc2nc(C(=O)N/N=C/c3cccc(N)c3)cs2)cc1
Assigned Label: high bracket

Ask: Which IC50 band matches COc1ccc(/C=N/NC(=O)c2csc(Nc3ccc([N+](=O)[O-])cc3)n2)cc1 ?
Reply: middle bracket
